protocol: Solubility in pH 7.4 phosphate buffer solution at 100 uM after 24 hrs by HPLC method
Type: physicochemical
condition info: phosphate buffer, pH 7.4
For each record, write down the corresponding solubility at 24 h, 100 µM.
Numbers only here, please. The scale is µM.

So what's the measured solubility at 24 h, 100 µM for this one? COc1ccc(Nc2c(NC(C)CCCCC(=O)NO)c(=O)c2=O)cc1 (racemic)
85

GET /values?readout=solubility at 24 h, 100 µM&item= CN(C)c1ccc(Nc2c(NCCCCCC(=O)NO)c(=O)c2=O)cc1
12

What value of solubility at 24 h, 100 µM has been reported for the following compound? O=C(CCCCCNc1c(NCc2ccccc2)c(=O)c1=O)NO
75

Which measured solubility at 24 h, 100 µM value corresponds to O=C(CCCCCCNc1c(Nc2ccccc2)c(=O)c1=O)NO ?
6

Given the entry Cc1cccc([C@@H](C)Nc2c(NCCCCCC(=O)NO)c(=O)c2=O)c1 , report its measured solubility at 24 h, 100 µM.
89

Report solubility at 24 h, 100 µM for C[C@@H](Nc1c(NCCCCCC(=O)NO)c(=O)c1=O)c1ccccc1 please.
80

Recorded solubility at 24 h, 100 µM for COc1cc(Nc2c(NCCCCCC(=O)NO)c(=O)c2=O)ccc1N(C)C , please?
93

Value lookup for solubility at 24 h, 100 µM; key = O=C(CCCCCNc1c(Nc2ccc(C(F)(F)F)cc2)c(=O)c1=O)NO
4.5

Request the reported solubility at 24 h, 100 µM associated with O=C(CCCCCCC(=O)Nc1ccccc1)NO
87

I'd like to know its solubility at 24 h, 100 µM. The compound in question is O=C(CCCCCNc1c(Nc2ccccc2)c(=O)c1=O)NO
47

Could you share which solubility at 24 h, 100 µM value was measured for C[C@H](CCCCC(=O)NO)Nc1c(Nc2ccc(OC(F)(F)F)cc2)c(=O)c1=O ?
27

What value of measured solubility at 24 h, 100 µM is listed for Cc1ccccc1Nc1c(NCCCCCC(=O)NO)c(=O)c1=O ?
89

Look at this compound and give its reported solubility at 24 h, 100 µM. Cc1ccc(Nc2c(NC(C)CCCCC(=O)NO)c(=O)c2=O)cc1 (racemic)
83

Report solubility at 24 h, 100 µM for CC(CCCCC(=O)NO)Nc1c(Nc2ccccc2)c(=O)c1=O (racemic) please.
93

Data request, read-out solubility at 24 h, 100 µM, for COc1ccc(Nc2c(NC3(CCCCC(=O)NO)CCC3)c(=O)c2=O)cc1
82

Please look up its solubility at 24 h, 100 µM: C[C@H](CCCCC(=O)NO)Nc1c(Nc2ccc3cc(C(F)(F)F)[nH]c3c2)c(=O)c1=O
10
